FYI, the data here is from patent EP4610269A1.

Target: human uPAR (uPAR-Fc) (Homo sapiens)
Construct: comprising amino acids Leu23-Arg303 according to UniProt entry Q03405.1; purchased R&D Systems 10378-UK-100
Experiment: Surface plasmon resonance (SPR) assay, single cycle kinetics
Assay type: binding
Conditions: pKD category for uPAR SPR activity assay; uPAR-Fc on Protein A-Chip, 25°C; read-out: pKD CAT (converted)
Experimental: Surface plasmon resonance (SPR) is an optical technique used to measure molecular interactions in real time. SPR occur when plane-polarized light hits a metal film under total internal reflection conditions. […] In an SPR experiment, one molecule (i.e. uPAR) is immobilized on a sensor chip and binding to a second molecule (i.e. test compounds) is measured under flow. […] This response is measured in resonance units (RU). […]
Where a SMILES comes first, the peptide text is derived from it. Bridges are numbered along the chain shown (N, C = ends). [ ]: non-standard residue; d: D form. The star is where a group is joined. DOTA = O=C(O)CN1CCN(CC(=O)O)CCN(CC(=O)*)CCN(CC(=O)O)CC1; Hyp = O=C(O)[C@@H]1C[C@@H](O)CN1; NMeE = CN[C@@H](CCC(=O)O)C(=O)O; Pentanoyl(4-Me) = CC(C)CCC(=O)*; Cit = NC(=O)NCCC[C@H](N)C(=O)O; Nva = CCC[C@H](N)C(=O)O; Pentanoyl = CCCCC(=O)*
Readout kind: Kd

INSERT INTO assay_data (molecule, data_value) VALUES
  ('CC[C@H](C)[C@@H]1NC(=O)[C@@H]2C[C@@H](O)CN2C(=O)[C@@H]2CCCN2C(=O)[C@H](Cc2ccccc2)NC(=O)[C@H](Cc2ccc(O)cc2)NC(=O)[C@H](CCCCNC(=O)CN2CCN(CC(=O)O)CCN(CC(=O)O)CCN(CC(=O)O)CC2)NC(=O)[C@H](CCCNC(N)=O)NC(=O)[C@@H](NC(=O)CCC(C)C)CSSC[C@@H](C(N)=O)NC(=O)[C@H](CC(C)C)NC1=O [UPAR-240] ({Pentanoyl(4-Me)}-C[Cit]K(DOTA)YFP[Hyp]ILC-NH2; disulfide 1-10)', '< 1.58 nM'),
  ('CC[C@H](C)[C@@H]1NC(=O)[C@@H](C)NC(=O)[C@@H]2CCCN2C(=O)[C@H](Cc2ccccc2)NC(=O)[C@H](Cc2ccc(O)cc2)NC(=O)[C@H](CCC(N)=O)NC(=O)[C@H](CCCNC(N)=O)NC(=O)[C@@H](NC(=O)CNC(C)=O)CSSC[C@@H](C(N)=O)NC(=O)[C@H](CC(C)C)NC1=O [UPAR-334] (Ac-GC[Cit]QYFP[dA]ILC-NH2; disulfide 2-11)', '> 100 nM'),
  ('CCCCC(=O)N[C@H]1CSSC[C@@H](C(N)=O)NC(=O)[C@H](CCC)NC(=O)[C@H]([C@@H](C)CC)NC(=O)[C@H](CCC(=O)O)N(C)C(=O)[C@@H]2CCCN2C(=O)[C@H](Cc2ccccc2)NC(=O)[C@H](Cc2ccc(O)cc2)NC(=O)[C@H](CCCCNC(=O)CN2CCN(CC(=O)O)CCN(CC(=O)O)CCN(CC(=O)O)CC2)NC(=O)[C@H](CCCNC(N)=O)NC1=O [UPAR-327] (Pentanoyl-C[Cit]K(DOTA)YFP[NMeE]I[Nva]C-NH2; disulfide 1-10)', '> 100 nM');

----------
Kd listing for selected molecules.
Biological target: human uPAR (uPAR-Fc) (Homo sapiens, UniProt Q03405)
Construct: comprising amino acids Leu23-Arg303 according to UniProt entry Q03405.1; purchased R&D Systems 10378-UK-100
Sequence (Q03405 23-303): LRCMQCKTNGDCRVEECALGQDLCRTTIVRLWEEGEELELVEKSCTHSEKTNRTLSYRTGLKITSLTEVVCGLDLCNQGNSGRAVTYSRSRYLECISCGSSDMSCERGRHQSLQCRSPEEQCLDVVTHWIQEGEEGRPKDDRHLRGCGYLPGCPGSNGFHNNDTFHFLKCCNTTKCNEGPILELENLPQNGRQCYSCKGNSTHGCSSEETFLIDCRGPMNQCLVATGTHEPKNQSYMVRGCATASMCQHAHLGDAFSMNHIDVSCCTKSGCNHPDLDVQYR
Assay: Surface plasmon resonance (SPR) assay, single cycle kinetics
Format: binding
Conditions: pKD category for uPAR SPR activity assay; uPAR-Fc on Protein A-Chip, 25°C; read-out: pKD CAT (converted)
Where a SMILES comes first, the peptide text is derived from it. Bridges are numbered along the chain shown (N, C = ends). [ ]: non-standard residue; d: D form. The star is where a group is joined. DOTA = O=C(O)CN1CCN(CC(=O)O)CCN(CC(=O)*)CCN(CC(=O)O)CC1; Pro(cis-4-F) = O=C(O)[C@@H]1C[C@H](F)CN1; Hyp = O=C(O)[C@@H]1C[C@@H](O)CN1; Pentanoyl(4-Me) = CC(C)CCC(=O)*; Cit = NC(=O)NCCC[C@H](N)C(=O)O; Butoxycarbonyl = CCCCOC(=O)*; Phg = N[C@H](C(=O)O)c1ccccc1; hCys = N[C@@H](CCS)C(=O)O; Dab = NCC[C@H](N)C(=O)O; Nva = CCC[C@H](N)C(=O)O; Hexanoyl = CCCCCC(=O)*; Pentanoyl = CCCCC(=O)*
Readout kind: Kd

INSERT INTO results (molecule, test_system, readout_kind, data_value) VALUES
  ('CCCCC(=O)N[C@H]1CSSC[C@@H](C(N)=O)NC(=O)[C@H](CCC)NC(=O)[C@H]([C@@H](C)CC)NC(=O)[C@@H]2C[C@@H](O)CN2C(=O)[C@@H]2CCCN2C(=O)[C@H](Cc2ccccc2)NC(=O)[C@H](c2ccccc2)NC(=O)[C@H](CCC(N)=O)NC(=O)[C@H](CCCNC(=N)N)NC1=O [UPAR-196] (Pentanoyl-CRQ[Phg]FP[Hyp]I[Nva]C-NH2; disulfide 1-10)', 'human uPAR (uPAR-Fc) (Homo sapiens, UniProt Q03405)', 'Kd', '> 100 nM'),
  ('CC[C@H](C)[C@@H]1NC(=O)[C@@H]2C[C@H](F)CN2C(=O)[C@@H]2CCCN2C(=O)[C@H](Cc2ccccc2)NC(=O)[C@H](Cc2ccc(O)cc2)NC(=O)[C@H](CCC(N)=O)NC(=O)[C@H](CCCNC(N)=O)NC(=O)[C@@H](NC(=O)CCC(C)C)CSSC[C@@H](C(N)=O)NC(=O)[C@H](CC(C)C)NC1=O [UPAR-307] ({Pentanoyl(4-Me)}-C[Cit]QYFP[Pro(cis-4-F)]ILC-NH2; disulfide 1-10)', 'human uPAR (uPAR-Fc) (Homo sapiens, UniProt Q03405)', 'Kd', '< 1.58 nM'),
  ('CCCCC(=O)N[C@H]1CCSSC[C@@H](C(N)=O)NC(=O)[C@H](CCC)NC(=O)[C@H]([C@@H](C)CC)NC(=O)[C@@H]2C[C@@H](O)CN2C(=O)[C@@H]2CCCN2C(=O)[C@H](Cc2ccccc2)NC(=O)[C@H](Cc2ccc(O)cc2)NC(=O)[C@H](CCC(N)=O)NC(=O)[C@H](CCCNC(=N)N)NC1=O [UPAR-300] (Pentanoyl-[hCys]RQYFP[Hyp]I[Nva]C-NH2; disulfide 1-10)', 'human uPAR (uPAR-Fc) (Homo sapiens, UniProt Q03405)', 'Kd', '1.58 to 10 nM'),
  ('CCCCOC(=O)N[C@H]1CSSC[C@@H](C(N)=O)NC(=O)[C@H](CCC)NC(=O)[C@H]([C@@H](C)CC)NC(=O)[C@@H]2C[C@@H](O)CN2C(=O)[C@@H]2C[C@H](F)CN2C(=O)[C@H](Cc2ccccc2)NC(=O)[C@H](Cc2ccc(O)cc2)NC(=O)[C@H](CCNC(=O)CN2CCN(CC(=O)O)CCN(CC(=O)O)CCN(CC(=O)O)CC2)NC(=O)[C@H]([C@@H](C)O)NC1=O [UPAR-228] (Butoxycarbonyl-CT[Dab](DOTA)YF[Pro(cis-4-F)][Hyp]I[Nva]C-NH2; disulfide 1-10)', 'human uPAR (uPAR-Fc) (Homo sapiens, UniProt Q03405)', 'Kd', '< 1.58 nM'),
  ('CCCCCC(=O)N[C@H](C(=O)N[C@@H](CC(C)C)C(=O)N[C@H]1CSSC[C@@H](C(N)=O)NC(=O)[C@H](CC(C)C)NC(=O)[C@H]([C@@H](C)CC)NC(=O)[C@H](C)NC(=O)[C@@H]2CCCN2C(=O)[C@H](Cc2ccccc2)NC(=O)[C@H](Cc2ccc(O)cc2)NC(=O)[C@H](Cc2ccc(O)cc2)NC(=O)[C@H](CCC(=O)O)NC1=O)[C@@H](C)O [UPAR-143] (Hexanoyl-TLCEYYFPAILC-NH2; disulfide 3-12)', 'human uPAR (uPAR-Fc) (Homo sapiens, UniProt Q03405)', 'Kd', '< 1.58 nM');
